- Test system: IGROV-1
- method-notes: NCI tumour cell line growth inhibition, 48 h
Calls of active or inactive are those of the source. Rule as the data show it: active = GI50 up to about 1.1 µM and inactive = higher.
Quick reference: GI50 of the listed items.

Input line: Need GI50, item Cc1ccc(C)n1-n1c(Cc2ccccc2)n[nH]c1=O
Output line: > 100 µM (inactive)

Input line: Now give it for CC(=O)Nc1ccc2c(C)c3c(nc2n1)[nH]c1ccccc13 too.
Output line: 22.2 µM (inactive)

Input line: Now consider Cc1cc2c(cc1C)NC(=O)C(NC(=O)/C=C/c1ccccc1)C=N2 (stereo not given) .
Output line: 34.8 µM (inactive)

Now consider a different compound.
Input line: I have this compound here, Nc1nc2c(ncn2CCCC(c2ccccc2)P(=O)(O)O)c(=O)[nH]1 (stereo not given) , and I need its recorded GI50.
Output line: > 100 µM (inactive)
